# Test system: α-amylase
# ASSAY_PROCEDURE: α-Amylase enzyme inhibition assay
# Type: biochemical
# EXPERIMENTAL_SETUP: sample concentration 200 µg/mL
PROPERTY: α-Amylase Inhibition (%)

{"columns": ["COMPOUND", "TARGET_UNDER_TEST", "PROPERTY", "UNIT_TEXT", "MEAS_VALUE"],
 "data": [
  ["CC1(C)OC2CC(=O)OCC23C1CC(=O)C1(C)C3CC[C@@](C)([C@@H](O[C@@H]2O[C@H](CO)[C@@H](O)[C@H](O)[C@H]2O)c2ccoc2)C12OC2C(=O)O (stereo partly drawn) [Cpd5, limonin 17-O-β-D-glucopyranoside]", "α-amylase", "α-Amylase Inhibition (%)", "%", 60.82],
  ["CC1(C)OC(=O)C=C[C@]2(C)[C@H]3CC[C@@](C)([C@@H](O[C@@H]4O[C@H](CO)[C@@H](O)[C@H](O)[C@H]4O)c4ccoc4)[C@@]4(O[C@@H]4C(=O)O)[C@]3(C)C(=O)C[C@@H]12 [Cpd4, obacunone 17-O-β-D-glucopyranoside]", "α-amylase", "α-Amylase Inhibition (%)", "%", 59.96]
]}

###

# Test system: α-glucosidase
# ASSAY_PROCEDURE: α-Glucosidase enzyme inhibition assay
# Format: biochemical
# EXPERIMENTAL_SETUP: sample concentration 50 µg/mL
Lab note: anything with α-Glucosidase Inhibition (%) at or over 9% counts as label 1; the rest go in label 0.

{"columns": ["MOLECULE", "TARGET_UNDER_TEST", "LABEL"],
 "data": [
  ["CC(=O)O[C@H]1CC(=O)OC(C)(C)[C@@H]2CC(=O)[C@]3(C)[C@H](CC[C@@]4(C)[C@H](c5ccoc5)OC(=O)[C@H]5O[C@]543)[C@@]12C", "α-glucosidase", "label 0"],
  ["CC1(C)OC(=O)C=C[C@]2(C)[C@H]3CC[C@@](C)([C@@H](O[C@@H]4O[C@H](CO)[C@@H](O)[C@H](O)[C@H]4O)c4ccoc4)[C@@]4(O[C@@H]4C(=O)O)[C@]3(C)C(=O)C[C@@H]12 [Cpd4, obacunone 17-O-β-D-glucopyranoside]", "α-glucosidase", "label 1"],
  ["CC1(C)OC(=O)C[C@H](O)[C@]2(C)[C@H]3CC[C@@]4(C)[C@H](c5ccoc5)OC(=O)[C@H]5O[C@]54[C@]3(C)C(=O)C[C@@H]12", "α-glucosidase", "label 1"],
  ["CC1(C)OC2CC(=O)OCC23C1CC(=O)C1(C)C3CC[C@@](C)([C@@H](O[C@@H]2O[C@H](CO)[C@@H](O)[C@H](O)[C@H]2O)c2ccoc2)C12OC2C(=O)O (stereo partly drawn) [Cpd5, limonin 17-O-β-D-glucopyranoside]", "α-glucosidase", "label 1"],
  ["C[C@H]1O[C@H](O[C@H]2[C@H](O)[C@@H](O)[C@@H](O[C@H]3[C@H](O)[C@@H](O)C(O)O[C@@H]3CO)O[C@@H]2CO)[C@H](O)[C@@H](O)[C@@H]1N[C@H]1C=C(CO)[C@@H](O)[C@H](O)[C@H]1O (stereo partly drawn) [Acarbose, acarbose, reference compound]", "α-glucosidase", "label 1"],
  ["CC1(C)O[C@H]2CC(=O)OC[C@]23[C@H]2CC[C@@]4(C)[C@H](c5ccoc5)OC(=O)[C@H]5O[C@]54[C@]2(C)C(=O)C[C@@H]13", "α-glucosidase", "label 0"]
]}

###

# System: α-glucosidase
# ASSAY_PROCEDURE: SDS-PAGE electrophoretic α-glucosidase pattern
# Assay type: biochemical
# EXPERIMENTAL_SETUP: 100 µg/mL
Response field label: string, one of label 1 (Qty (band quantity) of the α-glucosidase band strictly below 10) or label 0.

{"columns": ["MOLECULE", "LABEL"],
 "data": [
  ["CC1(C)OC(=O)C[C@H](O)[C@]2(C)[C@H]3CC[C@@]4(C)[C@H](c5ccoc5)OC(=O)[C@H]5O[C@]54[C@]3(C)C(=O)C[C@@H]12", "label 0"],
  ["CC(=O)O[C@H]1CC(=O)OC(C)(C)[C@@H]2CC(=O)[C@]3(C)[C@H](CC[C@@]4(C)[C@H](c5ccoc5)OC(=O)[C@H]5O[C@]543)[C@@]12C", "label 0"],
  ["CC1(C)OC(=O)C=C[C@]2(C)[C@H]3CC[C@@](C)([C@@H](O[C@@H]4O[C@H](CO)[C@@H](O)[C@H](O)[C@H]4O)c4ccoc4)[C@@]4(O[C@@H]4C(=O)O)[C@]3(C)C(=O)C[C@@H]12 [Cpd4, obacunone 17-O-β-D-glucopyranoside]", "label 1"],
  ["CC1(C)O[C@H]2CC(=O)OC[C@]23[C@H]2CC[C@@]4(C)[C@H](c5ccoc5)OC(=O)[C@H]5O[C@]54[C@]2(C)C(=O)C[C@@H]13", "label 0"],
  ["CC1(C)OC2CC(=O)OCC23C1CC(=O)C1(C)C3CC[C@@](C)([C@@H](O[C@@H]2O[C@H](CO)[C@@H](O)[C@H](O)[C@H]2O)c2ccoc2)C12OC2C(=O)O (stereo partly drawn) [Cpd5, limonin 17-O-β-D-glucopyranoside]", "label 1"]
]}

###

Below, each entry is listed with its recorded DPPH Inhibition (%).
# ASSAY_PROCEDURE: DPPH radical scavenging activity
# EXPERIMENTAL_SETUP: sample concentration 50 µg/mL

{"columns": ["COMPOUND", "DPPH Inhibition (%)"],
 "data": [
  ["CC(=O)O[C@H]1CC(=O)OC(C)(C)[C@@H]2CC(=O)[C@]3(C)[C@H](CC[C@@]4(C)[C@H](c5ccoc5)OC(=O)[C@H]5O[C@]543)[C@@]12C", 11.22],
  ["CC1(C)OC2CC(=O)OCC23C1CC(=O)C1(C)C3CC[C@@](C)([C@@H](O[C@@H]2O[C@H](CO)[C@@H](O)[C@H](O)[C@H]2O)c2ccoc2)C12OC2C(=O)O (stereo partly drawn) [Cpd5, limonin 17-O-β-D-glucopyranoside]", 23.87],
  ["CC1(C)OC(=O)C[C@H](O)[C@]2(C)[C@H]3CC[C@@]4(C)[C@H](c5ccoc5)OC(=O)[C@H]5O[C@]54[C@]3(C)C(=O)C[C@@H]12", 18.90]
]}

###

Below, each entry is listed alongside its reported α-Glucosidase Inhibition (%).
# Tested on: α-glucosidase
# ASSAY_PROCEDURE: α-Glucosidase enzyme inhibition assay
# Assay type: biochemical
# EXPERIMENTAL_SETUP: sample concentration 100 µg/mL
PROPERTY: α-Glucosidase Inhibition (%)

{"columns": ["MOLECULE", "PROPERTY", "MEAS_VALUE"],
 "data": [
  ["CC1(C)O[C@H]2CC(=O)OC[C@]23[C@H]2CC[C@@]4(C)[C@H](c5ccoc5)OC(=O)[C@H]5O[C@]54[C@]2(C)C(=O)C[C@@H]13", "α-Glucosidase Inhibition (%)", 2.44],
  ["C[C@H]1O[C@H](O[C@H]2[C@H](O)[C@@H](O)[C@@H](O[C@H]3[C@H](O)[C@@H](O)C(O)O[C@@H]3CO)O[C@@H]2CO)[C@H](O)[C@@H](O)[C@@H]1N[C@H]1C=C(CO)[C@@H](O)[C@H](O)[C@H]1O (stereo partly drawn) [Acarbose, acarbose, reference compound]", "α-Glucosidase Inhibition (%)", 29.73],
  ["CC1(C)OC(=O)C[C@H](O)[C@]2(C)[C@H]3CC[C@@]4(C)[C@H](c5ccoc5)OC(=O)[C@H]5O[C@]54[C@]3(C)C(=O)C[C@@H]12", "α-Glucosidase Inhibition (%)", 16.63],
  ["CC(=O)O[C@H]1CC(=O)OC(C)(C)[C@@H]2CC(=O)[C@]3(C)[C@H](CC[C@@]4(C)[C@H](c5ccoc5)OC(=O)[C@H]5O[C@]543)[C@@]12C", "α-Glucosidase Inhibition (%)", 2.67],
  ["CC1(C)OC(=O)C=C[C@]2(C)[C@H]3CC[C@@](C)([C@@H](O[C@@H]4O[C@H](CO)[C@@H](O)[C@H](O)[C@H]4O)c4ccoc4)[C@@]4(O[C@@H]4C(=O)O)[C@]3(C)C(=O)C[C@@H]12 [Cpd4, obacunone 17-O-β-D-glucopyranoside]", "α-Glucosidase Inhibition (%)", 26.30],
  ["CC1(C)OC2CC(=O)OCC23C1CC(=O)C1(C)C3CC[C@@](C)([C@@H](O[C@@H]2O[C@H](CO)[C@@H](O)[C@H](O)[C@H]2O)c2ccoc2)C12OC2C(=O)O (stereo partly drawn) [Cpd5, limonin 17-O-β-D-glucopyranoside]", "α-Glucosidase Inhibition (%)", 26.78]
]}

###

# ASSAY_PROCEDURE: Nitric oxide (NO) radical scavenging activity (Griess Illosvory reagent)
# EXPERIMENTAL_SETUP: sample concentration 200 µg/mL
Classify as follows. Reported NO Inhibition (%) greater than or equal to 60%: 1. Reported NO Inhibition (%) below: 0.

{"columns": ["COMPOUND", "LABEL"],
 "data": [
  ["CC(=O)O[C@H]1CC(=O)OC(C)(C)[C@@H]2CC(=O)[C@]3(C)[C@H](CC[C@@]4(C)[C@H](c5ccoc5)OC(=O)[C@H]5O[C@]543)[C@@]12C", 0],
  ["CC1(C)O[C@H]2CC(=O)OC[C@]23[C@H]2CC[C@@]4(C)[C@H](c5ccoc5)OC(=O)[C@H]5O[C@]54[C@]2(C)C(=O)C[C@@H]13", 0],
  ["O=C1O[C@H]([C@@H](O)CO)C(O)=C1O [Ascorbic Acid, ascorbic acid, reference compound]", 1],
  ["CC1(C)OC(=O)C[C@H](O)[C@]2(C)[C@H]3CC[C@@]4(C)[C@H](c5ccoc5)OC(=O)[C@H]5O[C@]54[C@]3(C)C(=O)C[C@@H]12", 0]
]}

These entries and their values trace back to paper PMC11401861.
